assayTarget: Ataxin-2 (Homo sapiens) (UniProt Q99700)
Sequence (Q99700 whole entry): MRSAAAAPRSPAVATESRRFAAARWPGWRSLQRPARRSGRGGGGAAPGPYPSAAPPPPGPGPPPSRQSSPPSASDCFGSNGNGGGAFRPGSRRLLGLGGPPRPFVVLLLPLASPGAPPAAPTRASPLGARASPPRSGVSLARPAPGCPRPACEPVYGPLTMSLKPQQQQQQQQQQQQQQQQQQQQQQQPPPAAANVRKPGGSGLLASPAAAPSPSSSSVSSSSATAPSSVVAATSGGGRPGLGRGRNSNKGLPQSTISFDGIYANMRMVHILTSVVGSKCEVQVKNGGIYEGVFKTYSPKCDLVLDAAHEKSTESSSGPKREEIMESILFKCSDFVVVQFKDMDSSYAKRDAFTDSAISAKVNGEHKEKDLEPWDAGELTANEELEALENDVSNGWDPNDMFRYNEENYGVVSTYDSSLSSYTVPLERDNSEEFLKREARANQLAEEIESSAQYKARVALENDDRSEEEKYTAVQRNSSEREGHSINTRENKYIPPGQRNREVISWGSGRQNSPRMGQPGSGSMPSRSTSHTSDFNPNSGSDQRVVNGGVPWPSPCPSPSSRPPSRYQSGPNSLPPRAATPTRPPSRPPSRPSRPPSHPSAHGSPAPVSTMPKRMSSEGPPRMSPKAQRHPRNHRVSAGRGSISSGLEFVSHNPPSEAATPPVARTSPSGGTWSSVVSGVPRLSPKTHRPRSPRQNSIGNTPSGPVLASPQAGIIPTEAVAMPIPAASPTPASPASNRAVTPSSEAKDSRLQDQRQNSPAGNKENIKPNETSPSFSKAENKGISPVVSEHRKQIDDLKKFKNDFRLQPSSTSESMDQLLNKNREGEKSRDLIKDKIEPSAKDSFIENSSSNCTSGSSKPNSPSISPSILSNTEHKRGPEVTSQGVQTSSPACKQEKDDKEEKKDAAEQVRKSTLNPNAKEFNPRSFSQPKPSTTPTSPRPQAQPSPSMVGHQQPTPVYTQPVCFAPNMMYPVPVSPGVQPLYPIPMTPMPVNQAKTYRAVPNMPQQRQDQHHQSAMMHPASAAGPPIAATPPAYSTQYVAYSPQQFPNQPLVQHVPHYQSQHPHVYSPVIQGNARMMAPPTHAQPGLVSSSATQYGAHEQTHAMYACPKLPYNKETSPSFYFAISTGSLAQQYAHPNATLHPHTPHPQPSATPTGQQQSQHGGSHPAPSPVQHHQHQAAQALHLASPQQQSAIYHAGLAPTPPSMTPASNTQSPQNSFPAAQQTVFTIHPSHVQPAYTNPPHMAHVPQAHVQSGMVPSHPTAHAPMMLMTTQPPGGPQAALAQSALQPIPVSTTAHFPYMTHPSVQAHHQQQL
assayText: qHTS for Inhibitors of ATXN expression.
Format: functional
About 2,100 (0.53%) of roughly 400,000 compounds were called active. Another 14% or so got no clear call; they are omitted. The rule behind the calls is not given here. What follows is part of a selection rich in actives, with near analogues and random picks from the rest.
// allowed return values: T (active), F (inactive)

Below are worked cases with known answers.
molecule	assayTarget	classAssignment
Cc1ccc(O)c(NC(=S)NC(=O)c2ccc(-c3ccc(Cl)cc3)o2)c1	Ataxin-2 (Homo sapiens) (UniProt Q99700)	T
COc1ccc(NC(=O)c2c(NCc3cccc(F)c3)sc3c2CCC3)c(OC)c1	Ataxin-2 (Homo sapiens) (UniProt Q99700)	T
CCN(CC)CCCN(Cc1cc2cc3c(cc2nc1O)OCO3)C(S)=Nc1ccc(OC)cc1	Ataxin-2 (Homo sapiens) (UniProt Q99700)	F

Proceed to the following item.
stdin: Tell me the recorded outcome of this test for Cc1cc(N2CCCC2)c(F)cc1/C=C\[N+](=O)[O-] .
stdout: F

###

assayTarget: Ataxin-2 (Homo sapiens) (UniProt Q99700)
assayText: qHTS for Inhibitors of ATXN expression.
Format: functional
Hit rate of the full screen: of about 400,000 compounds, about 2,100 (0.53%) were called active. Not shown: some 14% with an inconclusive outcome. How the calls were made is not given here. The sample as a whole holds a higher share of actives than the screen did.
Your response should consist of one outcome taken from active, inactive

Example cases with answers are listed next.
molecule	classAssignment
Cc1ccc(SSc2cc(C)ccc2N)c(N)c1	active
COc1ccc2cc3cc(C(=O)Nc4ccc5c(c4)OCCO5)oc3nc2c1	active
CS(=O)(=O)c1cnc2c(-c3ccsc3)cnn2c1N	inactive

stdin: Field: outcome | Entry: CCc1nonc1NC(=O)COc1cc(C)c(Cl)c(C)c1
stdout: inactive

stdin: Fill in: this test's call for COc1ccc(-n2cc(C(=O)c3ccccc3O)cn2)cc1 is ___
stdout: inactive

stdin: What call does the record list for Cc1ccc2cccc(OCC(=O)Nc3ccc4c(c3)OCO4)c2n1 ?
stdout: inactive

stdin: Test call, this molecule: CC(C)OCCCNC(=O)NC(=O)c1ccc(Cl)cc1
stdout: inactive

stdin: Check the results log: what was the call for CCOC(=O)Nc1ccc2c3c(cccc13)-c1ccccc1-2 ?
stdout: inactive

###

assayTarget: Ataxin-2 (Homo sapiens) (UniProt Q99700)
assayText: qHTS for Inhibitors of ATXN expression.
Type: functional
About 2,100 (0.53%) of roughly 400,000 compounds were called active. Another 14% or so got no clear call; they are omitted. The rule behind the calls is not given here. Many of the other results were omitted from the sample, so actives are more common in it than they were.
Please answer using one outcome listed in T for active, F for inactive

Reference set (10 entries):
molecule	classAssignment
COc1ccc(NC(=O)c2sc3nc(N4CCOCC4)c4c(c3c2N)CCCC4)cc1	F
CCN(CC)c1ccc2cc(-c3nc4ccccc4n3C)c(=O)oc2c1	F
N=c1c(S(=O)(=O)c2ccc(Br)cc2)cc2c(=O)n3ccccc3nc2n1Cc1ccco1	F
O=C(O)CSCC(=O)NCc1c(Cl)cccc1Oc1ccccc1	F
CCOc1cccc(NC(=O)c2sc3nc(-c4ccc(F)cc4)ccc3c2N)c1	F
CCOC(=O)c1cc2c(=O)n3ccccc3nc2n(Cc2ccccc2)c1=N	F
CCOc1ccc(-c2cnc3ccccc3n2)cc1	F
Cc1ccc(-c2nc3ccccn3c2Nc2ccc3c(c2)OCO3)cc1	T
CCN1C(=O)/C(=C2/Sc3ccccc3N2CC)S/C1=N\c1nc[nH]n1	F
CCOC(=O)/C(=C\C=C1/Sc2ccccc2N1CC)C(C)=O	F

stdin: # lookup: test call for CCN1/C(=C/c2ccc3cc(C)ccc3[n+]2CC)Sc2ccccc21
stdout: T

stdin: Please state the recorded outcome for this molecule: O=C(CCl)Nc1ccc(Oc2cnc3ccccc3n2)cc1
stdout: T

stdin: Query: recorded result category for O=C(CCl)Nc1cccc(-c2cnc3ccccc3n2)c1 in this test
stdout: T

stdin: Test call for this molecule, please: CCOC(=O)N1C(=O)[C@@](c2ccc(Cl)cc2)(C(C)C)N1C(=O)OCC
stdout: T

stdin: How was Oc1ccc(-c2cnc3ccccc3n2)cc1 classified in this test?
stdout: F

###

assayTarget: Ataxin-2 (Homo sapiens)
assayText: qHTS for Inhibitors of ATXN expression.
Type: functional
Hit rate of the full screen: of about 400,000 compounds, about 2,100 (0.53%) were called active. About 14% were inconclusive and are not listed. The rule behind the calls is not given here. The sample as a whole holds a higher share of actives than the screen did.
Pick one and only one: active, inactive

Here are 3 compounds together with their reported answers.
compound	classAssignment
O=C(Nc1ccc(F)cc1)c1cccnc1NCCc1ccccc1	inactive
COc1ccc(-c2nn(-c3ccccc3)cc2/C=N/Nc2ccc3ccccc3n2)cc1OC	inactive
COc1ccc(-c2nn(-c3ccccc3)cc2/C=C(\CC(=O)O)c2nc3ccccc3s2)cc1OC	inactive

stdin: For this compound, state the assay outcome: CC(=O)Nc1ccc(S(=O)(=O)[N-]c2nc3ccccc3nc2-[n+]2ccc(NC(=O)c3ccc(F)cc3)cc2)cc1
stdout: inactive

stdin: Fill in: this test's call for Cc1ccc(F)c([C@H]2[C@H]3C=CC[C@@H](C)[C@@H]3C(=O)N2Cc2ccccc2)c1 is ___
stdout: active

stdin: Write down the call the test reported for this compound. Item: Cc1ccccc1CS(=O)(=O)c1ncc(Cl)c(C(=O)Nc2ccc(F)cc2)n1
stdout: active

stdin: Could you kindly confirm the outcome this assay logged for O=C1C2C(c3ccccc3)CC=CC2[C@H](c2ccc(C(F)(F)F)cc2)N1Cc1ccccc1 (some centres undefined) ?
stdout: active

stdin: So what was the verdict on O=C(Nc1ccc(F)cc1)c1nc(S(=O)(=O)Cc2ccccc2)ncc1Cl in this test?
stdout: active

stdin: Lab log entry: CC[C@@H]1CC=C[C@H]2[C@H]1C(=O)N(Cc1ccccc1)[C@H]2c1ccoc1 — outcome as called in the assay?
stdout: active

###

assayTarget: Ataxin-2 (Homo sapiens) (UniProt Q99700)
assayText: qHTS for Inhibitors of ATXN expression.
Format: functional
Among all 400,000 compounds or so, about 2,100 (0.53%) were called active. Inconclusive results (about 14%) are left out. The rule behind the calls is not given here. The entries come from a sample that favours actives as a whole.
Hi there, use one of these labels in your reply, thanks! T = active, F = inactive

These solved cases illustrate the format of a correct answer.
molecule	classAssignment
CCc1ccc(OCCSc2nc3ccccc3n2CC(=O)N2CCCCC2)cc1	T
Cc1ccc(OCCSc2nc3ccccc3n2CC(=O)N2CCCCC2)c(C)c1	T
CCCCCc1cc(=O)oc2c(C(CCN3CCCC(C)C3)c3ccc(OC)cc3)c(OC)cc(OC)c12 (stereo not given)	T
CCCCCc1cc(=O)oc2c(C(CCN3CCCC(C)C3)c3ccc(N(C)C)cc3)c(OC)cc(OC)c12 (stereo not given)	T
O=C(CSc1nc2ccccc2n1Cc1ccc(Cl)cc1)N/N=C/c1ccc(C(=O)O)cc1	F

stdin: // param item: COc1cc(OC)c2c(C)cc(=O)oc2c1C(CCN1CCOCC1)c1ccc2c(c1)OCO2 (stereo not given) ; yields the recorded call
stdout: T

stdin: Could you please tell me the result logged for O=C(Cn1c(SCCOc2ccc(Cl)cc2)nc2ccccc21)N1CCCCC1 in this assay?
stdout: T

stdin: How was CCc1ccc(OCCSc2nc3ccccc3n2CCC(=O)O)cc1 classified in this test?
stdout: F

stdin: Assay outcome for Cc1ccc(Sc2ccc(NC(=O)CCl)cc2)c(C)c1 : what was it?
stdout: T

stdin: For COc1ccc(CN2COc3ccc4c(C)cc(=O)oc4c3C2)cc1 , what call appears in the results of this test?
stdout: F

###

assayTarget: Ataxin-2 (Homo sapiens) (UniProt Q99700)
assayText: qHTS for Inhibitors of ATXN expression.
Assay type: functional
About 2,100 (0.53%) of roughly 400,000 compounds were called active. About 14% were inconclusive and are not listed. How the calls were made is not given here. What follows is part of a selection rich in actives, with near analogues and random picks from the rest.
Your response should consist of one outcome taken from active, inactive

Worked examples, 2 compounds total:
compound	classAssignment
Nc1c2ccccc2nc2ccccc12	inactive
Cc1cccc(-n2cnc(C(=O)N3CCN(C)CC3)c2)n1	inactive

stdin: Dear all, I need the recorded test outcome for COc1ccccc1Nc1nc2cc(C)ccc2cc1C#N , thank you.
stdout: inactive

stdin: Outcome logged for Nc1ccc(/N=N\c2ccccc2)c(N)n1 in this assay:
stdout: inactive

stdin: For Nc1nc(O)cc(N=Nc2ccc(O)cc2)n1 , which call appears in the assay record?
stdout: active

stdin: Which result was noted for this compound in the test: CC(C)CC(NS(=O)(=O)OCC(Cl)(Cl)Cl)c1ccccc1 (configuration not stated)
stdout: active

stdin: Write down the call the test reported for this compound. Item: COc1ccc(C2OC3=Nc4cc(C)c(C)cc4NC3=C2O)cc1 (configuration not stated)
stdout: inactive

stdin: Could you kindly confirm the outcome this assay logged for COc1ccc(-c2ccc3c(N)c(C(=O)NC(C)C)sc3n2)cc1OC ?
stdout: inactive

stdin: What is the recorded call for this compound in the test? CCOC(=O)c1c2ccc(OCC(=O)NN)cc2n2ccccc12
stdout: inactive

stdin: Which outcome did this test record for the compound CCCn1c(=N)c(C(=O)NCc2cccnc2)cc2c(=O)n3ccccc3nc21 ?
stdout: inactive

stdin: Hi, sorry to bother you, what did the test record for Nc1ccc(N=Nc2ccc(O)cc2)c(N)n1 ?
stdout: active

stdin: Any idea what this test logged for COc1ccc(C)cc1Nc1n[n+](-c2ccccc2)c(-c2c(OC)ccc3ccccc23)s1 ?
stdout: active
